experiment_summary: Intrinsic clearance in Sprague-Dawley rat hepatocytes measured per 10^6 cells
Type: ADME, cell-based, Liver, Hepatocyte
endpoint: hepatocyte CLint (µL/min/1e6 cells)
Dear colleague, please return just the value in µL/min/1e6 cells, with no unit written.

Incoming: // lookup hepatocyte CLint for O=C(NCc1ccncn1)c1ccc(Oc2ccc(C#C[C@]3(O)CN4CCC3CC4)cc2)cc1
Outgoing: 3

###

experiment_summary: Half life in rat at 2 mg/kg, iv
Type: ADME, organism-based
Set-up: dose 2 mg/kg, route intravenous
condition_details: in vivo
endpoint: half-life (h)
Give just the number in h; leave the unit off.

Incoming: Would you mind telling me what half-life value was observed for O=C(NCc1ccncn1)c1ccc(Oc2ccc(C#C[C@]3(O)CN4CCC3CC4)cc2)cc1 ?
Outgoing: 2.4
